Assayed system: LFA-1 (CD18/CD11a) binding to ICAM-1 (Homo sapiens, UniProt P05107+P20701)
Construct: LFA-1 is immunopurified using the TS2/4 antibody from a 20 g pellet of human JY or SKW3 cells; endogenous in cells; sICAM-1 made in house, secreted from transfected CHO DUX cells
Sequence (P20701 26-1170): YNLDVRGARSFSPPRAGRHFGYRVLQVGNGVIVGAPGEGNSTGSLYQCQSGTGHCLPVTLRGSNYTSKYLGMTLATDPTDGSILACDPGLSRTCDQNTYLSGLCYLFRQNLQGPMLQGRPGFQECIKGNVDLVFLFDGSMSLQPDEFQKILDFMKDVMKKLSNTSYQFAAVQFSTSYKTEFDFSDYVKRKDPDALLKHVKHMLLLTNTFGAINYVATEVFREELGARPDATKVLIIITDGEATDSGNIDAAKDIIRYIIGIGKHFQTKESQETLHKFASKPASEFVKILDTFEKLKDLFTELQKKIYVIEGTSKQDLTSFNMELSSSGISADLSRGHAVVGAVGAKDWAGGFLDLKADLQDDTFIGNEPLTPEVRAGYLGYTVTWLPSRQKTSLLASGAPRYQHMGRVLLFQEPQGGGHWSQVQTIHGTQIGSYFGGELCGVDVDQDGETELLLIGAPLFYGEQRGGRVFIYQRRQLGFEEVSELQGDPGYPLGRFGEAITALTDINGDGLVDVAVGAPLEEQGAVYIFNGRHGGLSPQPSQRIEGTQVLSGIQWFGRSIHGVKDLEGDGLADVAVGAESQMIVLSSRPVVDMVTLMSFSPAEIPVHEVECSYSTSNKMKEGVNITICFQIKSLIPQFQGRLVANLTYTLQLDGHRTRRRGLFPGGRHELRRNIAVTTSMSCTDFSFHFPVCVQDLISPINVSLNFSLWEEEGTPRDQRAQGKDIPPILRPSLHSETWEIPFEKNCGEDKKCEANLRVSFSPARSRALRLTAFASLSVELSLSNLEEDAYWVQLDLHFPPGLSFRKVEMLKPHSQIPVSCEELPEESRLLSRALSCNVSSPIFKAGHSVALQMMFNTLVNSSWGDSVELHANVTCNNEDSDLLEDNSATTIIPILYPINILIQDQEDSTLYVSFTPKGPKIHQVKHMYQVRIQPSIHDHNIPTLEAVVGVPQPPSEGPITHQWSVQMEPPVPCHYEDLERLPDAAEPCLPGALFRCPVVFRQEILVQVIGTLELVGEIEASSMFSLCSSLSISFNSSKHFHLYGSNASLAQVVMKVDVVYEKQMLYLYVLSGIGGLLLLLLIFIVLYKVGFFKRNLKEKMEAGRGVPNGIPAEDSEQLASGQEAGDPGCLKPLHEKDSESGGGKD
Sequence (P05107 23-769): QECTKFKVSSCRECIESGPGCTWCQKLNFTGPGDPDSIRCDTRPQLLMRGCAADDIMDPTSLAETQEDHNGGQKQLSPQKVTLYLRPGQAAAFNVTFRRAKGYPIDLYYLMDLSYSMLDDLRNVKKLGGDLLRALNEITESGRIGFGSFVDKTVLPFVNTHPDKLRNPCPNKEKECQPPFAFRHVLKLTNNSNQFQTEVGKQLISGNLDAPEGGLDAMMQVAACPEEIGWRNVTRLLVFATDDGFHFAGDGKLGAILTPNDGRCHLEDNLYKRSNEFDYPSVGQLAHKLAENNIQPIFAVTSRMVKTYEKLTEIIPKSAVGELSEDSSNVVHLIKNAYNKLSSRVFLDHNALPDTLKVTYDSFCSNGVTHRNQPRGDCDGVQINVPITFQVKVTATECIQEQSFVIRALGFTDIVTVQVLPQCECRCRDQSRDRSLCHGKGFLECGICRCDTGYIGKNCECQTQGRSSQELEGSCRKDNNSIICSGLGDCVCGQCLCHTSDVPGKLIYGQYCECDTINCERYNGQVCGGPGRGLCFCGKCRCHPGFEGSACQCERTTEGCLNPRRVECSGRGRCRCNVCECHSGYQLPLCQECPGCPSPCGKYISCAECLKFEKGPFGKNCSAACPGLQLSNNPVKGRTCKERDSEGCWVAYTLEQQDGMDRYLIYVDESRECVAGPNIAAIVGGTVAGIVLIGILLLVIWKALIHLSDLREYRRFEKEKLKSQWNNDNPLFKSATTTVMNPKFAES
Assay procedure: Assay to determine inhibition of LFA-1 binding to ICAM-1
Condition label: immunopurified LFA-1 binding to plate-bound sICAM-1; read-out: LFA/ICAM1 Kd
pKd: −log10 of the molar value.
Recorded pKd, one value per entry.
Parameter: pKd

[[record]]
compound = "COC(=O)[C@H]1CC[C@@H](NC(=O)C2(NC(=O)c3cnc4n3[C@](C)(Cc3ccc(C#N)cc3)C(=O)N4c3cc(Cl)cc(Cl)c3)CC2)C1"
assayed_system = "LFA-1 (CD18/CD11a) binding to ICAM-1 (Homo sapiens, UniProt P05107+P20701)"
recorded_value = 7.55

[[record]]
compound = "C[C@@]1(Cc2ccc(C#N)cc2)C(=O)N(c2cc(Cl)c(F)c(Cl)c2)c2ncc(C(=O)NC3(C(=O)NC4(c5nccs5)CC4)CC3)n21"
assayed_system = "LFA-1 (CD18/CD11a) binding to ICAM-1 (Homo sapiens, UniProt P05107+P20701)"
recorded_value = 7.89

[[record]]
compound = "C[C@@H](NC(=O)c1cnc2n1[C@](C)(Cc1ccc(C#N)cc1)C(=O)N2c1cc(Cl)cc(Cl)c1)C(=O)Nc1ccnn1C"
assayed_system = "LFA-1 (CD18/CD11a) binding to ICAM-1 (Homo sapiens, UniProt P05107+P20701)"
recorded_value = 7.35

[[record]]
compound = "C[C@H](NC(=O)c1cnc2n1[C@](C)(Cc1ccc(C#N)cc1)C(=O)N2c1cc(Cl)c(F)c(Cl)c1)C(=O)NC1(c2ccccn2)CC1"
assayed_system = "LFA-1 (CD18/CD11a) binding to ICAM-1 (Homo sapiens, UniProt P05107+P20701)"
recorded_value = 8.00

[[record]]
compound = "C[C@@]1(Cc2ccc(C#N)cc2)C(=O)N(c2cc(Cl)cc(Cl)c2)c2ncc(C(=O)NC3(C(=O)N4CCC(S(C)(=O)=O)C4)CC3)n21 (some centres unmarked)"
assayed_system = "LFA-1 (CD18/CD11a) binding to ICAM-1 (Homo sapiens, UniProt P05107+P20701)"
recorded_value = 7.62

[[record]]
compound = "C[C@H](NC(=O)c1cnc2n1[C@](C)(Cc1ccc(C#N)cc1)C(=O)N2c1cc(Cl)cc(Cl)c1)C(=O)NC1CCC[C@H]1C(N)=O (some centres unmarked)"
assayed_system = "LFA-1 (CD18/CD11a) binding to ICAM-1 (Homo sapiens, UniProt P05107+P20701)"
recorded_value = 7.49

[[record]]
compound = "C[C@H](NC(=O)c1cnc2n1[C@](C)(Cc1ccc(C#N)cc1)C(=O)N2c1cc(Cl)cc(Cl)c1)C(=O)N1CCC[C@@H]1CO"
assayed_system = "LFA-1 (CD18/CD11a) binding to ICAM-1 (Homo sapiens, UniProt P05107+P20701)"
recorded_value = 7.41

[[record]]
compound = "C[C@H](NC(=O)c1cnc2n1[C@](C)(Cc1ccc(C#N)cc1)C(=O)N2c1cc(Cl)cc(Cl)c1)C(=O)NCCN1CCOCC1"
assayed_system = "LFA-1 (CD18/CD11a) binding to ICAM-1 (Homo sapiens, UniProt P05107+P20701)"
recorded_value = 6.92

